target: Sphingosine kinase 1 (Homo sapiens)
Sequence (Q9NYA1 whole entry): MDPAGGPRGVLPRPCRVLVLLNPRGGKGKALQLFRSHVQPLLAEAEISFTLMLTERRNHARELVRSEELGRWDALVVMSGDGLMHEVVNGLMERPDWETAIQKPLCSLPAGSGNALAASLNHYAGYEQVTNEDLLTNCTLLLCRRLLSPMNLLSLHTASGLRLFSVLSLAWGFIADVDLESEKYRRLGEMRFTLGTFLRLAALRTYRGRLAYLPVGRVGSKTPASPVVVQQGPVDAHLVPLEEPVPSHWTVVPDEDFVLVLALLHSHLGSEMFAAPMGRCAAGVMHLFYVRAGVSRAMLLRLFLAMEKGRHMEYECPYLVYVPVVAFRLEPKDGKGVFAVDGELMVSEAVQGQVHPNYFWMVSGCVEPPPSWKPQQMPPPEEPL
outcome-measure: pKi
Reminder that pKi is minus the log10 of a molar concentration.

QUERY: State its pKi for this compound: CCCCc1ccc(/C=C/[C@H](O)[C@@H](CO)NC)cc1
RESULT: 5.00

====

Give measured pKi for each item. Keep answers brief.
Target chain: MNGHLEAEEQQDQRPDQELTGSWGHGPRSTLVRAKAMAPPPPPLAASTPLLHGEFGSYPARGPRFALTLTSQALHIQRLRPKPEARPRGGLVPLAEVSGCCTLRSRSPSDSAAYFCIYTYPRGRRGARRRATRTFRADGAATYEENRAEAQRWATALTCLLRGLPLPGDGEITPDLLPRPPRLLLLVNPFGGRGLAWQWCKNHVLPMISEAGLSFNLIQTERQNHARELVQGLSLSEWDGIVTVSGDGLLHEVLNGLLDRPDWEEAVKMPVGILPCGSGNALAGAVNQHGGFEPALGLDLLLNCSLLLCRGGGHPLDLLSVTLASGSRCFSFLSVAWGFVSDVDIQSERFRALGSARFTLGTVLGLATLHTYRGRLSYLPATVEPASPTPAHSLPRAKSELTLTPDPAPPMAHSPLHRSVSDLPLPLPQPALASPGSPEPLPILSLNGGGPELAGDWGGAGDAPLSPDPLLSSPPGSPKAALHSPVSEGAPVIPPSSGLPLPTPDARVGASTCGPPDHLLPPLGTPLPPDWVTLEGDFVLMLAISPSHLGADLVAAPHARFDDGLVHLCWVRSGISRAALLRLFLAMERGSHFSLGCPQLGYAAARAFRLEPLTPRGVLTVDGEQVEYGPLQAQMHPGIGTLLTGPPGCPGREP
Reminder that pKi is minus the log10 of a molar concentration.

QUERY: State its pKi for this compound: CCCCCCCCCCCCc1ccc(C(=O)NC2(C(=N)N)CC2)cc1
RESULT: 6.30

QUERY: State its pKi for this compound: N=C(N)[C@@H]1CCCN1C(=O)c1ccc(-c2nc(-c3cccc(CCC4CCCCC4)c3)co2)cc1
RESULT: 5.38
